Tested on: MIA PaCa-2 cells
Assay: WST-1 cell viability, MIA PaCa-2 pancreatic cancer cells
Type: cell-based
Conditions: Homo sapiens; MIA PaCa-2 (PaC); 72 hrs, WST-1 (Table 1); read-out: Absolute IC50
measured property: pIC50
Just the number, please; pIC50 means minus log10 of the concentration in mol/L.

Lookup: Can you look up the measured pIC50 of COc1cccc2c1C(=O)c1c(O)c3c(c(O)c1C2=O)C[C@@](O)(C(=O)CO)C[C@@H]3O[C@H]1C[C@H](N)[C@H](O)[C@H](C)O1 [Doxorubicin, reference compound] for me?
Found: 7.00
